- EXPERIMENTAL SYSTEM: VEGF (R&D systems, Minneapolis, Minn.) (UniProt P15692-4 27-191, limits assumed)
- Sequence (P15692 other isoform, or with tags, fused parts or gaps limits assumed): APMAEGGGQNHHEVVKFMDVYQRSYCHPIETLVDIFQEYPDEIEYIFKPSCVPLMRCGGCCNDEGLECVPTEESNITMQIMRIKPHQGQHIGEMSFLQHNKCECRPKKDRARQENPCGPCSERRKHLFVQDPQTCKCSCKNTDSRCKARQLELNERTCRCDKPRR
- MEASUREMENT PROTOCOL: BIAcore SPR
OBSERVED PROPERTY: pKd
Units for pKd: none; it is -log10 of a concentration expressed in mol/L.

Give its pKd value. Item: 87 (antibody, human IgG1, V domains shown) VH: EVQLVESGGGLVQPGGSLRLSCAASGYTFTFYGMNWVRQAPGKGLEWVGWINTYTGEPTYAADFKRRFTFSLDTSKSTAYLQMNSLRAEDTAVYYCAKYPEYDGGSHWYFDVWGQGTLVTVSS VL: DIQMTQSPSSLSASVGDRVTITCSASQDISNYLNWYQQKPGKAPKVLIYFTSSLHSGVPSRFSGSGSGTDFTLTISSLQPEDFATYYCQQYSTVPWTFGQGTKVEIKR
9.69

Give its pKd value. Item: 84 (antibody, human IgG1, V domains shown) VH: EVQLVESGGGLVQPGGSLRLSCAASGYTFTFYGMNWVRQAPGKGLEWVGWINTYTGEPTYAADFKRRFTFSLDTSKSTAYLQMNSLRAEDTAVYYCAKYPPYEGSSHWYFDVWGQGTLVTVSS VL: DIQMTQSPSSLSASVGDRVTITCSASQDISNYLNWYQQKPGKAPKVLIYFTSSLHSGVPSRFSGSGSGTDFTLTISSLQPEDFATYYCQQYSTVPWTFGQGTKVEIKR
9.89

Give its pKd value. Item: 83 (antibody, human IgG1, V domains shown) VH: EVQLVESGGGLVQPGGSLRLSCAASGYTFTFYGMNWVRQAPGKGLEWVGWINTYTGEPTYAADFKRRFTFSLDTSKSTAYLQMNSLRAEDTAVYYCAKYPPYDGGSHWYFDVWGQGTLVTVSS VL: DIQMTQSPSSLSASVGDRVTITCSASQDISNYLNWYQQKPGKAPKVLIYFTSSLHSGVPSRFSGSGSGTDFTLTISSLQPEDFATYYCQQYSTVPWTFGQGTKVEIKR
9.97
